Cited source for all entries: PubChem BioAssay (NCI)

Quick reference: TGI of the listed items.
# System: UACC-62 melanoma
# procedure_text: NCI tumour cell line growth inhibition, 48 h
attribute_measured: TGI

1. CCCCCCCC/C=C\CCCCCCCCNc1ccn(C2OC(COP(=O)(O)OC3CC(n4cc(F)c(=O)[nH]c4=O)OC3CO)C(O)C2O)c(=O)n1 (stereo unspecified) | > 95 µM
2. c1ccc(N/N=C2\CC(c3ccccc3)Oc3ccccc32)cc1 (stereo unspecified) | > 100 µM
3. O=c1c(O)c(-c2ccc(O)c(O)c2)oc2cc(O)ccc12 | 39.5 µM
4. CCCCCCCCN(CCCCCCCC)C(=N)c1ccnc2ccccc12 | 2.65 µM
5. O=c1[nH]cnc2c(C3OC(CO)C(O)C3O)[nH]nc12 (stereo unspecified) | > 100 µM
6. NCCCNc1ccc2c(c1)[n+]([O-])c1ccccc1[n+]2[O-] | 49.2 µM
7. C=C(C)C1CC=C(C(=O)O)CC1 (stereo unspecified) | 1450 µM
8. COC(=O)CCc1ccc2c(c1)CCC2 | > 100 µM
9. CCN1C(C)=NC2C(=O)c3ccccc3C(=O)C21 (stereo unspecified) | > 100 µM
10. CN(C(=O)OC(C)(C)C)[C@H]1CCCC[C@H]1N1CCCC1 | > 100 µM
11. CC1=C(C)SC(=C2Sc3c(n(C)c(=O)[nH]c3=O)S2)S1 | > 100 µM
